# key: entry, value: pKd
# Target Desc: MS2 coat protein, dlFG mutant (Escherichia phage MS2, UniProt P03612, del68-81insG)
# Method Notes: 4 mM Mg2+; no ligand; RNA-MaP array; 100 mM Tris-HCl pH 7.5, 80 mM KCl, 4 mM MgCl2, 0.1 mg/mL BSA, 1 mM DTT, 0.01 mg/mL yeast tRNA, 0.01% Tween-20; protein 1.5 nM to 3 uM; 37 C (Table S3)
# Assay Setup: chain copies: 2; label: tethered by stalled RNA polymerase
pKd: −log10 of the molar value.
Readout Name: pKd

Eterna 7730249 (Same State - Arginine B) (ssRNA) RNA: UGUAUGGACUGAAGGAGCGCCUCAAAAUAGCAUGAGGAUCACCCAUGCAAGGCGAAAGCCGGGCAGGUAGGUCGCAGUCCAUACU ... 7.90
Eterna 6416899 (Inverted Same State NG 1) (ssRNA) RNA: CACAAAUGGCAGAAGGGACGGACGAUAGUGUAGUCAGGAUAUGCAAAUAGGUAUGGACAUGAGGAUCACCCAUGUCCGUCCUUU ... 7.82

These entries and their values trace back to paper PMC9170038.
